- target entity: T1, hIL-4Rα on cells (human, UniProt P24394 26-825)
- T1 sequence: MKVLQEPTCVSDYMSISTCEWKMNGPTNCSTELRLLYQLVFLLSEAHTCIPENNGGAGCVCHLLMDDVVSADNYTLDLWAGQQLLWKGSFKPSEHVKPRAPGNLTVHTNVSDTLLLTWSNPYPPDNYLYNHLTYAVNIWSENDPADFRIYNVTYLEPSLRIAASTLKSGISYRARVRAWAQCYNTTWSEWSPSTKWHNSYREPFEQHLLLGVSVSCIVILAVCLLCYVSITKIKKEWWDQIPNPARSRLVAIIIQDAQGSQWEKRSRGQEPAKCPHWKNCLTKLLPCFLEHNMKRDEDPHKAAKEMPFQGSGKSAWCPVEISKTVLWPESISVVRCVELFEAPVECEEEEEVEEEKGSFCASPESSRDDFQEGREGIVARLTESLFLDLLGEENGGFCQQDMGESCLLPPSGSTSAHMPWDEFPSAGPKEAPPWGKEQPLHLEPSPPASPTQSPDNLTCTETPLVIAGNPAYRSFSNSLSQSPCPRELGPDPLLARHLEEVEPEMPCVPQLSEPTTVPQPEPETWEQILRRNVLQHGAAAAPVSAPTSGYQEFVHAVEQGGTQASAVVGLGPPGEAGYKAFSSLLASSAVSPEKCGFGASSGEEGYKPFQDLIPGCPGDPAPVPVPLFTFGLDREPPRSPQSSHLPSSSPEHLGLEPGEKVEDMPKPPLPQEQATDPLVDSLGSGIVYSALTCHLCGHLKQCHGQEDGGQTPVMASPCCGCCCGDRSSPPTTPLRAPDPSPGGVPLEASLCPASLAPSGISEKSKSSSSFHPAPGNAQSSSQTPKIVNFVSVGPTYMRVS
- experiment description: cell-based or functional assay
measure: Relative Inhibition of IL-13 induced pSTAT6 IC50

Construct 5 (mAb414) (antibody, IgG4, V domains shown, VH/VL only) VH: EVQLVESGGGLEQPGGSLRLSCAGSGFTFRDFAMTWVRQAPGKGLEWVSSISGSGDNIYYADSVKGRFTISRDNSKNTLYLQMNSLRAEDTAVYYCAKDRVSITIRPRYYGLDVWGQGTTVTVSS VL: DIVMTQSPLSLPVTPGEPASISCRSSQSLLYSIGKNYVDWYLQKSGQSPQLLIYLGNKRASGVPDRFSGSGSGTDFTLKISRVEAEDVGFYYCMQSLQTPYVFGQGTKLEIK    1.07 relative to dupilumab
Construct 40 (mAb476) (antibody, IgG4, V domains shown, VH/VL only) VH: EVQLVESGGGLEQPGGSLRLSCAGSGFTFRDFAMTWVRQAPGKGLEWVSSVSGDGGNTYYADSVKGRFTISRDNSKNTLYLQMNSLRAEDTAVYYCAKDRLSKTIRPRYYGLDVWGQGTTVTVSS VL: DIVMTQSPLSLPVTPGEPASISCRSSQSVLYSIGYNYVDWYLQKSGQSPQLLIYLGNKRASGVPDRFSGSGSGTDFTLKISRVEAEDVGFYYCMQAYQSPYVFGQGTKLEIK    1.89 relative to dupilumab
Construct 46 (mAb501) (antibody, IgG4, V domains shown, VH/VL only) VH: EVQLVESGGGLEQPGGSLRLSCAGSGFTFRDSAMTWVRQAPGKGLEWVSSISGSGDGTYYADSVKGRFTISRDNSKNTLYLQMNSLRAEDTAVYYCAKDRLSIYIRPRYYGLDVWGQGTTVTVSS VL: DIVMTQSPLSLPVTPGEPASISCTSSQSLLYSIGYNYVDWYLQKSGQSPQLLIYLGNKRASGVPDRFSGSGSGTDFTLKISRVEAEDVGFYYCMQALQTPYTFGQGTKLEIK    3.6 relative to dupilumab
Construct 31 (mAb443) (antibody, IgG4, V domains shown, VH/VL only) VH: EVQLVESGGGLEQPGGSLRLSCAGSGFTFRDFAMTWVRQAPGKGLEWVSSISGSGGNIYYADSVKGRFTISRDNSKNTLYLQMNSLRAEDTAVYYCAKDRLSVTVRPRYYGLDVWGQGTTVTVSS VL: DIVMTQSPLSLPVTPGEPASISCRSSQSLLYSNGYNYLDWYLQKSGQSPQLLIYLGSNRASGVPDRFSGSGSGTDFTLKISRVEAEDVGFYYCMQALQAPYTFGQGTKLEIK    1.61 relative to dupilumab
Construct 15 (mAb423) (antibody, IgG4, V domains shown, VH/VL only) VH: EVQLVESGGGLEQPGGSLRLSCAGSGFTFRDFAMTWVRQAPGKGLEWVSSISGSGGNIYYADSVKGRFTISRDNSKNTLYLQMNSLRAEDTAVYYCAKDRLSKTIRPRYYGLDVWGQGTTVTVSS VL: DIVMTQSPLSLPVTPGEPASISCTASQSLLYSIGYNYVDWYLQKSGQSPQLLIYLGNKRASGVPDRFSGSGSGTDFTLKISRVEAEDVGFYYCMQSLTSPYTFGQGTKLEIK    0.468 relative to dupilumab
Construct 10 (mAb419) (antibody, IgG4, V domains shown, VH/VL only) VH: EVQLVESGGGLEQPGGSLRLSCAGSGFTFRDFAMTWVRQAPGKGLEWVSSISGDGSNTYYADSVKGRFTISRDNSKNTLYLQMNSLRAEDTAVYYCAKDRLSKTIRPRYYGLDVWGQGTTVTVSS VL: DIVMTQSPLSLPVTPGEPASISCRSSQSLLYSIGYNYVDWYLQKSGQSPQLLIYLGNKRASGVPDRFSGSGSGTDFTLKISRVEAEDVGFYYCMQALGSPYTFGQGTKLEIK    1.38 relative to dupilumab
Construct 28 (mAb436) (antibody, IgG4, V domains shown, VH/VL only) VH: EVQLVESGGGLEQPGGSLRLSCAGSGFTFRDFAMTWVRQAPGKGLEWVSSVSGSGGNTYYADSVKGRFTISRDNSKNTLYLQMNSLRAEDTAVYYCAKDRLSVTVRPRYYGLDVWGQGTTVTVSS VL: DIVMTQSPLSLPVTPGEPASISCTSSQSLLYSIGYNYVDWYLQKSGQSPQLLIYLGNKRASGVPDRFSGSGSGTDFTLKISRVEAEDVGFYYCMQSLQTPYTFGQGTKLEIK    0.497 relative to dupilumab

Turning now to a further binder:
// Relative Inhibition of IL-13 induced pSTAT6 IC50 lookup, binder = Construct 24 (mAb432) (antibody, IgG4, V domains shown, VH/VL only) VH: EVQLVESGGGLEQPGGSLRLSCAGSGFTFRDFAMTWVRQAPGKGLEWVSSISGSGGNIYYADSVKGRFTISRDNSKNTLYLQMNSLRAEDTAVYYCAKDRLSIAVRPRYYGLDVWGQGTTVTVSS VL: DIVMTQSPLSLPVTPGEPASISCTASQSLLYSIGKNYVDWYLQKSGQSPQLLIYLGNNRATGVPDRFSGSGSGTDFTLKISRVEAEDVGFYYCMQSLTSPYTFGQGTKLEIK , result: 0.586 relative to dupilumab
